Recorded optical density values for a group of binders are listed next.
Target: mouse ACVR2A (mouse, UniProt P27038 20-135, limits assumed); further: test concentration or dose not given here
Sequence (P27038 20-135 limits assumed): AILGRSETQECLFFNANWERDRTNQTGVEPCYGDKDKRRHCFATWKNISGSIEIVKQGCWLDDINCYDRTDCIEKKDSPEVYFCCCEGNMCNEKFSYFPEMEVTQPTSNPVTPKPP
Assay: ELISA
State the value with its unit after it.

Quick note, optical density for 369_C08 (antibody, V domains shown, VH and VL only) VH: EVQLLESGGGLVQPGGSLRLSCAASGFTFSDYGMNWVRQAPGKGLEWVSNINYNGGYTGYADSVKGRFTISRDNSKNTLYLQMNSLRAEDTAVYYCARSATWHDTHLDYWGQGTLVTVSS VL: DIQMTQSPSSLSASVGDRVTITCRASQSILTYLNWYQQKPGKAPKLVIYAATSLASGVPSRFSGSGSGTDFTLTISSLQPEDFATYYCQQSYENPLTFGGGTKVEIK landed at 2.33 OD

Quick note, optical density for 374_B11 (antibody, V domains shown, VH and VL only) VH: EVQLLESGGGLVQPGGSLRLSCAASGFTFSSYSMNWVRQAPGKGLEWVSGINYNSGYKSYADSVKGRFTISRDNSKNTLYLQMNSLRAEDTAVYYCARSATWHDTHLDYWGQGTLVTVSS VL: DIQMTQSPSSLSASVGDRVTITCRASQSILTYVNWYQQKPGKAPKLVIYAATSRASGVPSRFSGSGSGTDFTLTISSLQPEDFATYYCQQSYDLPLTFGGGTKVEIK landed at 3.66 OD

Quick note, optical density for 373_F02 (antibody, V domains shown, VH and VL only) VH: EVQLLESGGGLVQPGGSLRLSCAASGFTFDSYSMNWVRQAPGKGLEWVSGINYNSGYKSYADSVKGRFTISRDNSKNTLYLQMNSLRAEDTAVYYCARSATWHDTHLDYWGQGTLVTVSS VL: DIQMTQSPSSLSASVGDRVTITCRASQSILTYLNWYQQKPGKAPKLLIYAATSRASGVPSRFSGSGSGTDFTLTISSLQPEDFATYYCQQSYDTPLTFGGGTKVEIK landed at 3.6 OD

Quick note, optical density for 368_G08 (antibody, V domains shown, VH and VL only) VH: EVQLLESGGGLVQPGGSLRLSCAASGFTFDDYGMNWVRQAPGKGLEWVSSINYNSGYKSYADSVKGRFTISRDNSKNTLYLQMNSLRAEDTAVYYCARSATWHDTHLDYWGQGTLVTVSS VL: DIQMTQSPSSLSASVGDRVTITCRASQSIVSYVNWYQQKPGKAPKLLIYAATSRHSGVPSRFSGSGSGTDFTLTISSLQPEDFATYYCQQSYNNPLTFGGGTKVEIK landed at 1.75 OD

Quick note, optical density for 376_C07 (antibody, V domains shown, VH and VL only) VH: EVQLLESGGGLVQPGGSLRLSCAASGFTFSSYSMNWVRQAPGKGLEWVSGINYNSGYKGYADSVKGRFTISRDNSKNTLYLQMNSLRAEDTAVYYCARSATWHDTHLDYWGQGTLVTVSS VL: DIQMTQSPSSLSASVGDRVTITCRASQSILSYVNWYQQKPGKAPKLLIYAATSRHSGVPSRFSGSGSGTDFTLTISSLQPEDFATYYCQQSYDLPLTFGGGTKVEIK landed at 3.71 OD
